- System: LNCaP
- experiment.notes: Antiproliferative activity against human LNCAP cells assessed as T/C value at 3.2 uM incubated for 96 hrs by propidium iodide based 2D monolayer assay
- Format: functional
Note to self: class = bucket of T/C, per group A: < 20%; group B: ≥ 20% and < 50%; group C: ≥ 50%

compound: CC(O)(CSc1cc(C(F)(F)F)cc(C(F)(F)F)c1)C(=O)Nc1cccc(C(F)(F)C(F)(F)F)c1 (racemic)
target.entity: LNCaP
class.name: group C

compound: CC(O)(COc1ccc(C(F)(F)C(F)(F)F)cc1)C(=O)Nc1cc(C(F)(F)F)cc(C(F)(F)F)c1 (racemic)
target.entity: LNCaP
class.name: group B

compound: CC1(C)C(=O)N(c2cccc(S(F)(F)(F)(F)F)c2)C(=S)N1c1cccc(C(F)(F)F)c1
target.entity: LNCaP
class.name: group C

compound: CC(O)(COc1cc(C(F)(F)F)cc(C(F)(F)F)c1)C(=O)Nc1cccc(S(F)(F)(F)(F)F)c1 (racemic)
target.entity: LNCaP
class.name: group A

compound: CC1(C)C(=O)N(c2ccc(C#N)cc2C(F)(F)F)C(=S)N1c1cccc(S(F)(F)(F)(F)F)c1
target.entity: LNCaP
class.name: group C

compound: CNC(=O)c1ccc(N2C(=S)N(c3ccc(C#N)c(C(F)(F)F)c3)C(=O)C2(C)C)cc1F [ENZALUTAMIDE]
target.entity: LNCaP
class.name: group C

compound: CC(O)(COc1ccc(S(F)(F)(F)(F)F)cc1)C(=O)Nc1cc(C(F)(F)F)cc(C(F)(F)F)c1 (racemic)
target.entity: LNCaP
class.name: group A

compound: CC(O)(COc1cc(C(F)(F)F)cc(C(F)(F)F)c1)C(=O)Nc1ccc(S(F)(F)(F)(F)F)cc1 (racemic)
target.entity: LNCaP
class.name: group B

compound: CC(O)(COc1cccc(S(F)(F)(F)(F)F)c1)C(=O)Nc1cc(C(F)(F)F)cc(C(F)(F)F)c1 (racemic)
target.entity: LNCaP
class.name: group A

* * *

- System: VCaP
- experiment.notes: Antiproliferative activity against human VCaP cells assessed as T/C value at 3.2 uM incubated for 96 hrs by propidium iodide based 2D monolayer assay
- Format: functional
Recorded T/C values for a group of compounds are listed next.

compound: CNC(=O)c1ccc(N2C(=S)N(c3ccc(C#N)c(C(F)(F)F)c3)C(=O)C2(C)C)cc1F [ENZALUTAMIDE]
T/C: 85%
//
compound: CC(O)(COc1cccc(S(F)(F)(F)(F)F)c1)C(=O)Nc1cc(C(F)(F)F)cc(C(F)(F)F)c1 (racemic)
T/C: 34%
//
compound: CC(O)(COc1ccccc1C(F)(F)F)C(=O)Nc1ccc(S(F)(F)(F)(F)F)cc1 (racemic)
T/C: 19 - 45%
//
compound: CC(O)(COc1cccc(S(F)(F)(F)(F)F)c1)C(=O)Nc1ccc([N+](=O)[O-])c(C(F)(F)F)c1 (racemic)
T/C: 81 - 87%
//
compound: CC1(C)C(=O)N(c2cccc(S(F)(F)(F)(F)F)c2)C(=S)N1c1cccc(C(F)(F)F)c1
T/C: 71%
//
compound: CC(O)(COc1ccc(S(F)(F)(F)(F)F)cc1)C(=O)Nc1cc(C(F)(F)F)cc(C(F)(F)F)c1 (racemic)
T/C: 30%
//
compound: CC(O)(CSc1cc(C(F)(F)F)cc(C(F)(F)F)c1)C(=O)Nc1cccc(C(F)(F)C(F)(F)F)c1 (racemic)
T/C: 102%
//
compound: CC(O)(COc1cc(C(F)(F)F)cc(C(F)(F)F)c1)C(=O)Nc1ccc(S(F)(F)(F)(F)F)cc1 (racemic)
T/C: 37%
//
compound: CC(O)(COc1ccc(C(F)(F)C(F)(F)F)cc1)C(=O)Nc1cc(C(F)(F)F)cc(C(F)(F)F)c1 (racemic)
T/C: 45%
//
compound: CC1(C)C(=O)N(c2ccc(C#N)cc2C(F)(F)F)C(=S)N1c1cccc(S(F)(F)(F)(F)F)c1
T/C: 64%
//
compound: CC(O)(COc1cc(C(F)(F)F)cc(C(F)(F)F)c1)C(=O)Nc1cccc(S(F)(F)(F)(F)F)c1 (racemic)
T/C: 33%
//
compound: CC1(C)C(=O)N(c2ccc(C#N)cc2C(F)(F)F)C(=S)N1c1ccc(S(F)(F)(F)(F)F)cc1
T/C: 74%
